Assignment: determine reported apparent KD of K4 kissing-loop reporter for the given sequences.
- Test system: K4 kissing-loop RNA reporter
- Method description: apparent KD of K4 kissing-loop reporter; higher = weaker reporter binding
- Condition details: Eterna round: R107; input ligand: none
Express it in nM; write the number only.

input: Value wanted: apparent KD of K4 kissing-loop reporter (K4 kissing-loop RNA reporter) of entry CGGUACGUCGCAGGAUAUGGAUUCUGGAGUGAUGUUUCAGAGGCAUGCGGAAAACGCAUGCCGACUCCAGAAGGGCGACGUACCG
output: 276

input: Value wanted: apparent KD of K4 kissing-loop reporter (K4 kissing-loop RNA reporter) of entry ACCUACGAUCACAAUAGUGAUUGUAGGAACUAGGAUAUGCUGAAAAGCAGAAGGAGUGAUGUUCCGUCAUGAAUAACAUGACAAA [FmnAX 5 #OpenEnded #K4Late #CoaxialStacking]
output: 495

input: Value wanted: apparent KD of K4 kissing-loop reporter (K4 kissing-loop RNA reporter) of entry AGGAGUGAUGUUCCUACAUACACGGUCCGACGAGGACCGGUACGGCCGCCACUCGCGUCCCAGUGAUGUUGGGAUUUGGCGUACA [Exclusion Tryptophan A Gf 16]
output: 180

input: Value wanted: apparent KD of K4 kissing-loop reporter (K4 kissing-loop RNA reporter) of entry AACUCUCAGGCACGCGAGUGAUGUUCGCGGCGAGGACCGGUACGGCCGCCACUCGCGCCUGAGAGAGGUUAUCAAAGAUAGCCAA [whbob_SS_tryp_A]
output: 116

---

- System: K4 kissing-loop RNA reporter;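 note: bound reporter read as fluorescence of individual clusters on recovered sequencing chips by microscopy, with normalized cluster intensities fitted with a binding model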
- Method description: apparent KD of K4 kissing-loop reporter; higher = weaker reporter binding
- Condition details: Eterna round: R107; input ligand: tryptophan 2.4 mM
Reported metric: apparent KD of K4 kissing-loop reporter (nM)
Express it in nM; write the number only.

input: Field request: apparent KD of K4 kissing-loop reporter | item: AGCAAUAUCACGGCCGCCACUGAAUAUUGUUUUUAUAGUUAUAAAUCUUGCCAGUGAUGUUGGUUCAGGACCGGGUGAGUUAAUA [JR_SSTryptoB_Sub003]
output: 429

input: Field request: apparent KD of K4 kissing-loop reporter | item: UGUGUUUACCUGACUCAGUGAUGUUGAGAAGGAGCGUGGGAAACCACAGGUAGGUCGCUCAACCUAAAUUCAGGUGAGCACUAAA
output: 231

input: Field request: apparent KD of K4 kissing-loop reporter | item: GCCGUAGAUUGAAGGAGCGGGCCGUAGUGAUGUUACGCCAAGUUGUCUUUUAUUGAUGUGGCCCAGGUAGGUCGCAAUCUACGGC
output: 273

input: Field request: apparent KD of K4 kissing-loop reporter | item: CACGAUGAAUUCUCUAGGAGUGAUGUUUUUCGAGGACCGGUACGGCCGCCACUCGGACCAGGAACGUGGGAGCGGCGAAAAGACU [jbmullin]
output: 343

input: Field request: apparent KD of K4 kissing-loop reporter | item: GGUUAAAGCACCCGGAGUGAUGUUCCGGAUACCAGCAAACCAACUUGCCCUUGGCAGCCGUAUAGCGUCCGGUGGGCCGAGCAUA [Raarce]
output: 92.7

input: Field request: apparent KD of K4 kissing-loop reporter | item: UGGAGUUGACGAAAAGUCAACUCCUGAGAUACCAGUGACGAAGGUCACCCUUGGCAGCUCACUGCUAGUGAUGUUGGAAGAUAAA [whbob_SS_Theo_A_w48]
output: 792

input: Field request: apparent KD of K4 kissing-loop reporter | item: GUGAAGGAGCUGCAGUGAUGUUGCAGAGACUAGGAUAUCAGGAAACUGAGAAGGAGUCAACUCCUUCACCUAGACAACAUCACUA [[F]''-[K1]-[K2]-[F1]-[F2]-[F2]'-[F1]'-[K]'_Design2]
output: 187

input: Field request: apparent KD of K4 kissing-loop reporter | item: ACGCUGGAUGAAUAACAUCUAGCGAAAAUUCGAGGACCGGUACGGCCGCCACUCGAGCUAACUGCGAGUGAUGUUCGAUAAUAAA [Mat - Mod of OpenEnded 3 - D6]
output: 72.1

input: Field request: apparent KD of K4 kissing-loop reporter | item: GGAGGAGAAUAUGAUACCAGCAGAGAGAGAGAGGAAGUAUAGUGAUGUUAUAUGUGAGAAUGCCCUUGGCAGCAUAACAUGAAGG [whbob_SS_Theo_B_sa90]
output: 159

input: Field request: apparent KD of K4 kissing-loop reporter | item: AGAUCUGUAACAGAUACCAGAGGACGAUGAUCGGACAGUGAUGUUAUCUGUCAGUCGUCGCUCCCUUGGCAGCUGUUACAGAUCA [Omei KL Theo B SS B v3]
output: 65.2

input: Field request: apparent KD of K4 kissing-loop reporter | item: ACGUAGUUCUAGGAUACCAGCCAAGGAGCGCAGGACAAAAGUCCUGCCGCCAGUGAUGUUGGCCCUUGGCAGCCUAGAACUACGA [Omei KL Theo B Exc B v1]
output: 160

input: Field request: apparent KD of K4 kissing-loop reporter | item: AGCAGCAAAUCCUAGUGAUGUUAGGAUAUGUAGGAUAUCGGGAUACCGAGAAGGACAGAAGGAGGAGUGAUGUUCCUAAGCUGCA [FmnAX 24 #DoubleAptamer #DoubleK4 #SwitchBubble]
output: 107

input: Field request: apparent KD of K4 kissing-loop reporter | item: CUGGGUUGACGAAAAGUCAACAAAUGAGAAGGAGCGCACGAAAGUGCAGGUAGGUCGCUCAAUCCAGUGAUGUUGGAUCAUCCAG [#SwitchBubble 12 #K4Late]
output: 472

input: Field request: apparent KD of K4 kissing-loop reporter | item: CCUGCCAGCACGGCCGCCACUUCUAUUGUAUCUAUUUUUGUAAUCCUUUAGGAGUGAUGUUUUUAAAGGACCGGGUGAUGGCUGA [theeternabot_exclusion_KL_Trp_B_14]
output: 410
